System: HCV replicon HuH5-2
Test: Cellular HCV-RNA replication assay (replicon system), luciferase reporter, with Alamar Blue cytotoxicity test
Assay type: cell-based, hepatitis C virus
Settings: CC50 from Alamar Blue fluorescence, EC50 from luciferase activity, HuH5-2 cells
Documented SI (selectivity index) = CC50/EC50 across a set of molecules

CC(C)N(c1sc(-c2ccccc2)cc1C(=O)O)C(=O)[C@H]1CC[C@H](C)CC1 : >50
CC(C)N(c1sc(C2CCN(S(C)(=O)=O)CC2)cc1C(=O)O)C(=O)[C@H]1CC[C@H](C)CC1 : >18

What does the record list as SI (selectivity index) = CC50/EC50 for CC(C)N(C(=O)[C@@H]1CC[C@@H](C)C[C@@H]1O)c1sc(-c2ccccc2)cc1C(=O)O (single isomer, unassigned) ?
>277

Where do these numbers come from? They come from patent US20070099929A1.
